molecular target: UniProtKB P10636; assay: MCE Phenols Library screening, tau biosensor cell seeding assay (AvZ); format: cell-based; details: puncta, replicate 2
Sequence (P10636 623-695 limits assumed): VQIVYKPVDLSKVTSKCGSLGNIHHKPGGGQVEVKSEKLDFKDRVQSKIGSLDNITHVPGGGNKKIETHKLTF
measurement_name: raw data 2

• Cl.NCC(O)c1ccc(O)cc1 (stereo not drawn) [Octopamine (hydrochloride)] = 14652.9
• CC(=O)c1ccc(C)cc1O [2'-Hydroxy-4'-methylacetophenone] = 7565.33
• COc1ccc(/C=C/c2cc(O)cc(O[C@@H]3O[C@H](CO)[C@@H](O)[C@H](O)[C@H]3O)c2)cc1 = 10219.6
• COc1cc(OC)c(CCC(=O)c2ccc(O)cc2)c(OC)c1 = 15412.2
• COc1cc(/C=C/C=O)cc(OC)c1O = 14600.1
• CC(=O)Oc1ccc(/C=C/c2cc(OC(C)=O)cc(OC(C)=O)c2)cc1 = 12082.6
• O=C(O)c1ccc(O)cc1 [4-Hydroxybenzoic acid] = 4386.59
• COc1c2ccoc2nc2c(O)cccc12 = 20543.7
• NCC(c1ccc(O)cc1)C1(O)CCCCC1 (stereo not drawn) = 22918.7
